- target-system: Kappa-type opioid receptor (Homo sapiens, UniProt P41145)
- Sequence (P41145 whole entry): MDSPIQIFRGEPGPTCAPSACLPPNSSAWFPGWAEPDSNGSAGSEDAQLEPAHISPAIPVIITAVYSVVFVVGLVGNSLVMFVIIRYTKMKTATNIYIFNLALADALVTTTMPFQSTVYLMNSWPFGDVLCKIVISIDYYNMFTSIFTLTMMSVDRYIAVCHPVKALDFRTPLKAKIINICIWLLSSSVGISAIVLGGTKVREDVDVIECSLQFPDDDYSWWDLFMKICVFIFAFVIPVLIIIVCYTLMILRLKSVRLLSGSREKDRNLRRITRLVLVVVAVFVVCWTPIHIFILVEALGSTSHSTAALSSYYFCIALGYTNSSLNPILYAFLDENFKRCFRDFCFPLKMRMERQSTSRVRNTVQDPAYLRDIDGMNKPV
- protocol-details: Displacement of [3H]-U69593 from human kappa opioid receptor expressed in CHO cells after 60 mins by scintillation counting analysis
- Assay type: cell-based
Non-standard residues stand in square brackets, D forms with d. Residues, ends and D or L forms follow the SMILES beside them. *: point of attachment. βGlc = OC[C@H]1O[C@@H](*)[C@H](O)[C@@H](O)[C@@H]1O; Aib = CC(C)(N)C(=O)O; Ava = NCCCCC(=O)O; GABA = NCCCC(=O)O
Consider the following molecules; for each one, report its pKi.
Give bare numbers, as −log10 of the molar value.

Here is how some molecules turned out for pKi.
molecule | result
CC(C)C[C@H](NC(=O)[C@H](CO[C@@H]1O[C@H](CO)[C@@H](O)[C@H](O)[C@H]1O)NC(=O)[C@H](CCCCN)NC(=O)[C@H](CC(C)C)NC(=O)[C@H](C)NC(=O)[C@H](CCCCN)NC(=O)[C@H](CCCCN)NC(=O)C(C)(C)NC(=O)[C@H](CC(C)C)NC(=O)[C@H](CC(N)=O)NC(=O)CNC(=O)CNC(=O)[C@H](Cc1ccccc1)N(C)C(=O)CNC(=O)[C@@H](C)NC(=O)[C@@H](N)Cc1ccc(O)cc1)C(N)=O | 6.37
CC(C)C[C@H](NC(=O)[C@H](CO[C@@H]1O[C@H](CO)[C@@H](O)[C@H](O)[C@H]1O)NC(=O)[C@H](CCCCN)NC(=O)[C@H](CC(C)C)NC(=O)[C@H](C)NC(=O)[C@H](CCCCN)NC(=O)[C@H](CCC(=O)O)NC(=O)C(C)(C)NC(=O)[C@H](CC(C)C)NC(=O)[C@H](CC(N)=O)NC(=O)CCNC(=O)[C@H](Cc1ccccc1)N(C)C(=O)CNC(=O)[C@@H](C)NC(=O)[C@@H](N)Cc1ccc(O)cc1)C(N)=O | 6.70
CC(C)C[C@H](NC(=O)[C@H](CO[C@@H]1O[C@H](CO)[C@@H](O)[C@H](O)[C@H]1O)NC(=O)[C@H](CCCCN)NC(=O)[C@H](CC(C)C)NC(=O)[C@H](C)NC(=O)[C@H](CCCCN)NC(=O)[C@H](CCC(=O)O)NC(=O)C(C)(C)NC(=O)[C@H](CC(C)C)NC(=O)[C@H](CC(N)=O)NC(=O)[C@@H]1CCCN1C(=O)[C@H](CC(C)C)NC(=O)[C@H](Cc1ccccc1)NC(=O)CNC(=O)[C@@H](NC(=O)[C@@H](N)Cc1ccc(O)cc1)[C@@H](C)O)C(N)=O | 8.64
CC(C)C[C@H](NC(=O)[C@H](CO[C@@H]1O[C@H](CO)[C@@H](O)[C@H](O)[C@H]1O)NC(=O)[C@H](CCCCN)NC(=O)[C@H](CC(C)C)NC(=O)[C@H](C)NC(=O)[C@H](CCCCN)NC(=O)[C@H](CCC(=O)O)NC(=O)C(C)(C)NC(=O)[C@H](CC(C)C)NC(=O)[C@H](CC(N)=O)NC(=O)CCCCNC(=O)[C@H](CC(C)C)NC(=O)[C@H](Cc1ccccc1)NC(=O)CNC(=O)[C@@H](NC(=O)[C@@H](N)Cc1ccc(O)cc1)[C@@H](C)O)C(N)=O (H-YTGFL[Ava]NL[Aib]EKALKS(βGlc)L-NH2) | 7.92

For the next question, use this molecule.
pKi in this record for CC(C)C[C@H](NC(=O)[C@H](CO)NC(=O)CCCNC(=O)[C@H](CC(C)C)NC(=O)[C@H](Cc1ccccc1)NC(=O)CNC(=O)[C@@H](NC(=O)[C@@H](N)Cc1ccc(O)cc1)[C@@H](C)O)C(N)=O (H-YTGFL[GABA]SL-NH2) : 7.41

----------
- target-system: Delta-type opioid receptor (Homo sapiens, UniProt P41143)
- Sequence (P41143 whole entry): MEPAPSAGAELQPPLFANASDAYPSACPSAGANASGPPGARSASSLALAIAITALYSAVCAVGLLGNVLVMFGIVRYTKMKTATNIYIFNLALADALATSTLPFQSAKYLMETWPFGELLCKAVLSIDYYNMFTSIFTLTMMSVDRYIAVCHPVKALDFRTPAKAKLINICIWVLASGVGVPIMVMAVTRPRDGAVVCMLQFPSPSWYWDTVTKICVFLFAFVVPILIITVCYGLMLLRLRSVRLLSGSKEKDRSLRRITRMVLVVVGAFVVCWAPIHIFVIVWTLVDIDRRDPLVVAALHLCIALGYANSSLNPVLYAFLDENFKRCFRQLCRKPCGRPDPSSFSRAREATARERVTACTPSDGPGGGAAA
- protocol-details: Displacement of [3H]-naltrindole from human delta opioid receptor expressed in CHO cells after 3 hrs by scintillation counting analysis
- Type: cell-based
Non-standard residues stand in square brackets, D forms with d. Residues, ends and D or L forms follow the SMILES beside them. *: point of attachment. βGlc = OC[C@H]1O[C@@H](*)[C@H](O)[C@@H](O)[C@@H]1O; GABA = NCCCC(=O)O
endpoint-label: Ki

Here is how some compounds turned out for Ki.
compound | endpoint-label | result
CC(C)C[C@H](NC(=O)[C@H](CO[C@@H]1O[C@H](CO)[C@@H](O)[C@H](O)[C@H]1O)NC(=O)CCCNC(=O)[C@H](CC(C)C)NC(=O)[C@H](Cc1ccccc1)NC(=O)CNC(=O)[C@@H](NC(=O)[C@@H](N)Cc1ccc(O)cc1)[C@@H](C)O)C(N)=O (H-YTGFL[GABA]S(βGlc)L-NH2) | Ki | 15 nM
CC(C)C[C@H](NC(=O)[C@H](CO[C@@H]1O[C@H](CO)[C@@H](O)[C@H](O)[C@H]1O)NC(=O)[C@H](CCCCN)NC(=O)[C@H](CC(C)C)NC(=O)[C@H](C)NC(=O)[C@H](CC(N)=O)NC(=O)[C@H](CCCCN)NC(=O)C(C)(C)NC(=O)[C@H](CC(C)C)NC(=O)[C@H](CC(N)=O)NC(=O)CNC(=O)CNC(=O)[C@H](Cc1ccccc1)N(C)C(=O)CNC(=O)[C@@H](C)NC(=O)[C@@H](N)Cc1ccc(O)cc1)C(N)=O | Ki | 430 nM
CC(C)C[C@H](NC(=O)[C@H](CO)NC(=O)CCCNC(=O)[C@H](CC(C)C)NC(=O)[C@H](Cc1ccccc1)NC(=O)CNC(=O)[C@@H](NC(=O)[C@@H](N)Cc1ccc(O)cc1)[C@@H](C)O)C(N)=O (H-YTGFL[GABA]SL-NH2) | Ki | 6.6 nM

For each of the items listed, what is its Ki?
1. CC(C)C[C@H](NC(=O)[C@H](CO[C@@H]1O[C@H](CO)[C@@H](O)[C@H](O)[C@H]1O)NC(=O)[C@H](CCCCN)NC(=O)[C@H](CC(C)C)NC(=O)[C@H](C)NC(=O)[C@H](CCCCN)NC(=O)[C@H](CCC(=O)O)NC(=O)C(C)(C)NC(=O)[C@H](CC(C)C)NC(=O)[C@H](CC(N)=O)NC(=O)CNC(=O)CNC(=O)[C@H](Cc1ccccc1)N(C)C(=O)CNC(=O)[C@@H](C)NC(=O)[C@@H](N)Cc1ccc(O)cc1)C(N)=O
2. CC(C)C[C@H](NC(=O)[C@H](CO[C@@H]1O[C@H](CO)[C@@H](O)[C@H](O)[C@H]1O)NC(=O)[C@H](CCCCN)NC(=O)[C@H](CC(C)C)NC(=O)[C@H](C)NC(=O)[C@H](CCCCN)NC(=O)[C@H](CCC(=O)O)NC(=O)C(C)(C)NC(=O)[C@H](CC(C)C)NC(=O)[C@H](CC(N)=O)NC(=O)CCNC(=O)[C@H](Cc1ccccc1)N(C)C(=O)CNC(=O)[C@@H](C)NC(=O)[C@@H](N)Cc1ccc(O)cc1)C(N)=O

OUT:
1500 nM
1400 nM

----------
Consider the following compounds; for each one, report its pKi.
- target-system: UniProtKB P35372
- Sequence (P35372 whole entry): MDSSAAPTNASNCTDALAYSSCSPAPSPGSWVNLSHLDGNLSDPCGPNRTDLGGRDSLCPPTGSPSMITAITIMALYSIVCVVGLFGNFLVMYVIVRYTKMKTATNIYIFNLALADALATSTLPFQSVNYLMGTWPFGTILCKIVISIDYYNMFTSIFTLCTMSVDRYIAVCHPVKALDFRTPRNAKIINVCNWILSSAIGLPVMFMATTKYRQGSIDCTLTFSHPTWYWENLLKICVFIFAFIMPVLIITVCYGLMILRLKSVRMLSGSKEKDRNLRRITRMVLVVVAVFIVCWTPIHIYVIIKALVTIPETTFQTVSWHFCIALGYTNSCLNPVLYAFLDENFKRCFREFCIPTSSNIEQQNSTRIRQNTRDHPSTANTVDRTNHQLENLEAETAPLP
- protocol-details: Displacement of [3H]-DAMGO from human mu opioid receptor expressed in CHO cells after 60 mins by scintillation counting analysis
- Assay type: cell-based
Non-standard residues stand in square brackets, D forms with d. Residues, ends and D or L forms follow the SMILES beside them. *: point of attachment. βGlc = OC[C@H]1O[C@@H](*)[C@H](O)[C@@H](O)[C@@H]1O; Aib = CC(C)(N)C(=O)O; Ava = NCCCCC(=O)O; GABA = NCCCC(=O)O
Give bare numbers, as −log10 of the molar value.

Here is how some compounds turned out for pKi.
compound | pKi
CC(C)C[C@H](NC(=O)[C@H](CO)NC(=O)CCCNC(=O)[C@H](CC(C)C)NC(=O)[C@H](Cc1ccccc1)NC(=O)CNC(=O)[C@@H](NC(=O)[C@@H](N)Cc1ccc(O)cc1)[C@@H](C)O)C(N)=O (H-YTGFL[GABA]SL-NH2) | 8.42
CC(C)C[C@H](NC(=O)[C@H](CO[C@@H]1O[C@H](CO)[C@@H](O)[C@H](O)[C@H]1O)NC(=O)[C@H](CCCCN)NC(=O)[C@H](CC(C)C)NC(=O)[C@H](C)NC(=O)[C@H](CCCCN)NC(=O)[C@H](CCC(=O)O)NC(=O)C(C)(C)NC(=O)[C@H](CC(C)C)NC(=O)[C@H](CC(N)=O)NC(=O)CCCCNC(=O)[C@H](CC(C)C)NC(=O)[C@H](Cc1ccccc1)NC(=O)CNC(=O)[C@@H](NC(=O)[C@@H](N)Cc1ccc(O)cc1)[C@@H](C)O)C(N)=O (H-YTGFL[Ava]NL[Aib]EKALKS(βGlc)L-NH2) | 8.85
CC(C)C[C@H](NC(=O)[C@H](CO[C@@H]1O[C@H](CO)[C@@H](O)[C@H](O)[C@H]1O)NC(=O)[C@H](CCCCN)NC(=O)[C@H](CC(C)C)NC(=O)[C@H](C)NC(=O)[C@H](CCCCN)NC(=O)[C@H](CCC(=O)O)NC(=O)C(C)(C)NC(=O)[C@H](CC(C)C)NC(=O)[C@H](CC(N)=O)NC(=O)[C@@H]1CCCN1C(=O)[C@H](Cc1ccccc1)N(C)C(=O)CNC(=O)[C@@H](C)NC(=O)[C@@H](N)Cc1ccc(O)cc1)C(N)=O | 8.06
CC(C)C[C@H](NC(=O)[C@H](CO[C@@H]1O[C@H](CO)[C@@H](O)[C@H](O)[C@H]1O)NC(=O)[C@H](CCCCN)NC(=O)[C@H](CC(C)C)NC(=O)[C@H](C)NC(=O)[C@H](CCCCN)NC(=O)[C@H](CCC(=O)O)NC(=O)C(C)(C)NC(=O)[C@H](CC(C)C)NC(=O)[C@H](CC(N)=O)NC(=O)CNC(=O)CNC(=O)[C@H](Cc1ccccc1)N(C)C(=O)CNC(=O)[C@@H](C)NC(=O)[C@@H](N)Cc1ccc(O)cc1)C(N)=O | 8.55

For the next question, use this compound.
pKi in this record for "CC(C)C[C@H](NC(=O)[C@H](CO[C@@H]1O[C@H](CO)[C@@H](O)[C@H](O)[C@H]1O)NC(=O)[C@H](CCCCN)NC(=O)[C@H](CC(C)C)NC(=O)[C@H](C)NC(=O)[C@H](CCCCN)NC(=O)[C@H](CCCCN)NC(=O)C(C)(C)NC(=O)[C@H](CC(C)C)NC(=O)[C@H](CC(N)=O)NC(=O)CNC(=O)CNC(=O)[C@H](Cc1ccccc1)N(C)C(=O)CNC(=O)[C@@H](C)NC(=O)[C@@H](N)Cc1ccc(O)cc1)C(N)=O" : 7.68
